FYI, the data here is from patent US12123048B2.

Experiment: Measurement of enzyme substrate degradation (100° C. for 15 minutes) by fluorescence
Assay type: physicochemical
Conditions: pH 9 LB broth, no spores, read at 60° C., +30 min
observed_property: MEASURED FLUORESCENCE, RFU +30 min (RFU)

[1] Cc1cc(=O)oc2cc(O[C@H]3O[C@H](CO)[C@@H](O)[C@H](O)[C@H]3O)c(F)cc12
[2] Cc1cc(=O)oc2cc(O[C@H]3O[C@H](CO)[C@@H](O)[C@H](O)[C@H]3O)ccc12
Task: # returns the entry with the larger MEASURED FLUORESCENCE, RFU +30 min; inputs 1 and 2 # respond with the chosen item's label
Result: 1
(1: 1330 RFU, 2: 500 RFU)

[A] Cc1cc(=O)oc2cc(O[C@H]3O[C@H](CO)[C@@H](O)[C@H](O)[C@H]3O)cc(F)c12
[B] Cc1cc(=O)oc2c(F)c(O[C@H]3O[C@H](CO)[C@@H](O)[C@H](O)[C@H]3O)c(F)cc12
Task: Given A and given B , which shows the smaller recorded MEASURED FLUORESCENCE, RFU +30 min? Let me know the label of the one you choose.
Result: A
